Molecular target: eIF4AIII;MLN51 SELOR;Y14;Magoh (human;human;human, UniProt P38919;O15234;Q9Y5S9;P61326 1-411;137-283;50-174;1-146, |||)
Sequence (P38919 whole entry, chain 1 of 4, other chains not shown): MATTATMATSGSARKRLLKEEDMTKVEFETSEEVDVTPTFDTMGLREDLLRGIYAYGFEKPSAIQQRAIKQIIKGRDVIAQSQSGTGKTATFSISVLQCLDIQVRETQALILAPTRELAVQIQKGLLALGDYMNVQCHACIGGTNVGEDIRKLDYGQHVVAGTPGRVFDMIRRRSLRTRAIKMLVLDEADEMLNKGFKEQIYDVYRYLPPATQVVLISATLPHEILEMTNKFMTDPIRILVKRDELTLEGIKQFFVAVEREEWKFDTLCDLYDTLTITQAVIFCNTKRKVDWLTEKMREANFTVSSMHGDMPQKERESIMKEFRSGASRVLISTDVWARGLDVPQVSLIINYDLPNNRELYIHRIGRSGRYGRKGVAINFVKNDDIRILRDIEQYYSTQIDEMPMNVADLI
Sequence (O15234 137-283, chain 2 of 4, other chains not shown): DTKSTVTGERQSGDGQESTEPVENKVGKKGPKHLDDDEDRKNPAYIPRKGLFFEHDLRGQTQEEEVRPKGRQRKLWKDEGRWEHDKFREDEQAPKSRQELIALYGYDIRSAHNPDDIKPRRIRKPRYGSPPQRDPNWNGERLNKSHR
Sequence (P61326 whole entry, chain 4 of 4, other chains not shown): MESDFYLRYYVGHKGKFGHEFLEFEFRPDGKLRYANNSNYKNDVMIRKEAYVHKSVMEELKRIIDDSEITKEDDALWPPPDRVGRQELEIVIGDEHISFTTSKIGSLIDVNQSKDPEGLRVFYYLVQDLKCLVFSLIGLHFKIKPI
Assay: SPR; ATP; 5 mM Mg2+; SPR (Biacore 2000): 40 mM Tris-HCl pH 7.8, 50 mM NaCl, 4 mM DTT, 5 mM MgCl2, 0.002% Tween 20, 30 ul/min, 10-160 nM protein; temperature not stated
Conditions: protein: recombinant;recombinant;recombinant;recombinant; tags: N-terminal His6;GST cleaved off (PreScission);none;N-terminal His6; copies: 1;1;1;1; label: 5' biotin; single strand
Value kind: Kd

Problem: May I ask what Kd has been recorded for AUGUCAUUCGAGUACAGUCUGUUCAGCUAGUCUCC (ssRNA) [35-mer ssRNA] ?
Result: ~10 nM
